morphology score values by entry
- Tested on: Vero E6 infected with SARS-CoV-2
- test.summary: morphology score (similarity to uninfected cells); higher = more like uninfected cells
- test.conditions: 24 h

# example entries with known answers
| compound | morphology score |
| --- | --- |
| CCOC(=O)Nc1ccc2c(c1)N(C(=O)CCN(CC)CC)c1ccccc1S2 [ethacizin] (10 µM) | 0.00909 |
| CN(C/C=C/C#CC(C)(C)C)Cc1cccc2ccccc12 [terbinafine] (10 µM) | 0.413 |
| CC(C)c1cnn2c(NCc3ccccc3)cc(NCCCCCCN)nc12 (10 µM) | 0.714 |

Next:
Quick one: morphology score of Cc1ccccc1C(=O)Nc1ccc(C(=O)N2CCCC(N(C)C)c3ccccc32)cc1 (centres undefined) [mozavaptan] (0.833333 µM) ?
0.0205

###

- System: Vero E6 infected with SARS-CoV-2
- test.summary: inhibition of SARS-CoV-2 cytopathic effect; higher = more antiviral protection, active = above 15
- test.conditions: 8.33 nM; 48 h
assay.readout: inhibition of SARS-CoV-2 cytopathic effect (%)
Provide only the numeric value, understood in %.

| molecule | number |
| --- | --- |
| O=[N+]([O-])O[C@@H]1CO[C@H]2[C@@H]1OC[C@@H]2O [isosorbide-mononitrate] | -1.06 |
| Cc1cc(O)ccc1Cl | 2.29 |
| CCCCc1ccc(O)cc1O | -3.11 |

Quick one: inhibition of SARS-CoV-2 cytopathic effect of CCOC(=O)Nc1ccc(NCc2c(C)cc(C)cc2C)cc1N ?
1.07

And Clc1ccc(C(Cn2ccnc2)OCc2csc3c(Cl)cccc23)c(Cl)c1 (centres undefined) ?
1.06

And CCCC[P+](CCCC)(CCCC)Cc1ccc(NC(=O)[C@H](Cc2ccc3ccccc3c2)N/C(=N/C2CCCCC2)NC2CCCCC2)cc1 ?
-0.27

And Cc1cc2c(cc1C(F)(F)F)N(C(=O)Nc1ccc(Oc3cccnc3C)nc1)CC2 ?
0.15

And N#Cc1cc(F)cc(-c2nc(-c3ccc(F)cn3)no2)c1 ?
2.48

And O=C(Nc1ccc(OC(F)(F)F)cc1)c1sccc1NCc1ccnc2ccccc12 ?
3.56

And CC(=O)Nc1ccc(C(=O)Nc2ccccc2N)cc1 ?
1.48

And C=C1/C(=C\C=C2/CCC[C@]3(C)[C@@H]([C@H](C)CC[C@@H](O)C(C)C)CC[C@@H]23)C[C@@H](O)C[C@@H]1O ?
-0.65

###

- Tested on: Vero E6 infected with SARS-CoV-2
- test.summary: morphology score (similarity to uninfected cells); higher = more like uninfected cells
- test.conditions: 24 h
assay.readout: morphology score
// keep it numeric: no unit symbol after the value

# example entries with known answers
| molecule | morphology score |
| --- | --- |
| CC(=O)c1cc2c(o1)C(=O)c1ccccc1C2=O [napabucasin] (0.833333 µM) | 0.309 |
| O=C(O)c1ccc(OCCn2ccnc2)cc1 [dazoxiben] (10 µM) | 0.196 |
| COC1=C[C@@H]2[C@@H]3Cc4ccc(OC)c(O)c4[C@]2(CCN3C)CC1=O [sinomenine] (10 µM) | 0.141 |

What morphology score appears in the records for this molecule with Vero E6 infected with SARS-CoV-2? N[C@@H]1[C@H]2CN(c3nc4c(cc3F)c(=O)c(C(=O)O)cn4-c3ccc(F)cc3F)C[C@@H]12 [trovafloxacin] (10 µM)
0.276
